Biological target: Metabotropic glutamate receptor 5 (Rattus norvegicus, UniProt P31424)
Sequence (P31424 whole entry): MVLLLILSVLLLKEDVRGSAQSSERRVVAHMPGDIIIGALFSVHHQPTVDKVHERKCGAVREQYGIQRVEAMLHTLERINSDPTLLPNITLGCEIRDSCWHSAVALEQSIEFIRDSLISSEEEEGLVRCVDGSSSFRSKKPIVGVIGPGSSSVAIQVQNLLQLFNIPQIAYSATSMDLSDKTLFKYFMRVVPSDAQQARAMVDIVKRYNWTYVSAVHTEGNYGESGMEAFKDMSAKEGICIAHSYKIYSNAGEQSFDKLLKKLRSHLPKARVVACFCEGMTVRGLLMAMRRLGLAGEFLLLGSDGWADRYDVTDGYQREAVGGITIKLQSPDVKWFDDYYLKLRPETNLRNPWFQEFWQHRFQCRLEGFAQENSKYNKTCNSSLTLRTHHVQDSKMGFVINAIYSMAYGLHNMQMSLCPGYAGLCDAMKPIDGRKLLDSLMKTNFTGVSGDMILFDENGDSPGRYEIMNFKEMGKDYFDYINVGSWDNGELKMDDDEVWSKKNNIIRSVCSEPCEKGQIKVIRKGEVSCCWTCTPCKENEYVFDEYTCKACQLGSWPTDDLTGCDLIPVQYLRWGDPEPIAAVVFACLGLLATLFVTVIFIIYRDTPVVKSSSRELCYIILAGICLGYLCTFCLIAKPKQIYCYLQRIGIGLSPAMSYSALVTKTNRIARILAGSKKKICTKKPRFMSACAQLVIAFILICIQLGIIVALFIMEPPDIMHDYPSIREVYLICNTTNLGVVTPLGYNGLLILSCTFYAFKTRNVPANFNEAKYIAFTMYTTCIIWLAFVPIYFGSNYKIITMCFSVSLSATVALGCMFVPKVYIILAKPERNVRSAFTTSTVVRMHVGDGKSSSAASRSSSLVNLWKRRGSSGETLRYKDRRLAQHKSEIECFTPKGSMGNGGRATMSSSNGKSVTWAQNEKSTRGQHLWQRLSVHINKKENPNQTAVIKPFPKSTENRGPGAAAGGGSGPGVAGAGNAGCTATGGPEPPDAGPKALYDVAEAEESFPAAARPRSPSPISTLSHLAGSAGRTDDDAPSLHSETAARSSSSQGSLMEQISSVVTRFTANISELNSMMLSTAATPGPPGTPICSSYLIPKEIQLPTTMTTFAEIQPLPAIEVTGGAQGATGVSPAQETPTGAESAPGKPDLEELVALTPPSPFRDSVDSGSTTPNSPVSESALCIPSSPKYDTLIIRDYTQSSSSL
Assay: Binding affinity towards mGlu5 receptors in rat brain membranes was evaluated
VALUE_KIND: IC50 (nM)
Answers are plain numbers, in nM.

Query string: Using the record for [3H]C([3H])([3H])Oc1cncc(C#Cc2ccccn2)c1 , report its IC50.
Result string: 12

* * *

Target: Metabotropic glutamate receptor 5 (Homo sapiens, UniProt P41594)
Sequence (P41594 whole entry): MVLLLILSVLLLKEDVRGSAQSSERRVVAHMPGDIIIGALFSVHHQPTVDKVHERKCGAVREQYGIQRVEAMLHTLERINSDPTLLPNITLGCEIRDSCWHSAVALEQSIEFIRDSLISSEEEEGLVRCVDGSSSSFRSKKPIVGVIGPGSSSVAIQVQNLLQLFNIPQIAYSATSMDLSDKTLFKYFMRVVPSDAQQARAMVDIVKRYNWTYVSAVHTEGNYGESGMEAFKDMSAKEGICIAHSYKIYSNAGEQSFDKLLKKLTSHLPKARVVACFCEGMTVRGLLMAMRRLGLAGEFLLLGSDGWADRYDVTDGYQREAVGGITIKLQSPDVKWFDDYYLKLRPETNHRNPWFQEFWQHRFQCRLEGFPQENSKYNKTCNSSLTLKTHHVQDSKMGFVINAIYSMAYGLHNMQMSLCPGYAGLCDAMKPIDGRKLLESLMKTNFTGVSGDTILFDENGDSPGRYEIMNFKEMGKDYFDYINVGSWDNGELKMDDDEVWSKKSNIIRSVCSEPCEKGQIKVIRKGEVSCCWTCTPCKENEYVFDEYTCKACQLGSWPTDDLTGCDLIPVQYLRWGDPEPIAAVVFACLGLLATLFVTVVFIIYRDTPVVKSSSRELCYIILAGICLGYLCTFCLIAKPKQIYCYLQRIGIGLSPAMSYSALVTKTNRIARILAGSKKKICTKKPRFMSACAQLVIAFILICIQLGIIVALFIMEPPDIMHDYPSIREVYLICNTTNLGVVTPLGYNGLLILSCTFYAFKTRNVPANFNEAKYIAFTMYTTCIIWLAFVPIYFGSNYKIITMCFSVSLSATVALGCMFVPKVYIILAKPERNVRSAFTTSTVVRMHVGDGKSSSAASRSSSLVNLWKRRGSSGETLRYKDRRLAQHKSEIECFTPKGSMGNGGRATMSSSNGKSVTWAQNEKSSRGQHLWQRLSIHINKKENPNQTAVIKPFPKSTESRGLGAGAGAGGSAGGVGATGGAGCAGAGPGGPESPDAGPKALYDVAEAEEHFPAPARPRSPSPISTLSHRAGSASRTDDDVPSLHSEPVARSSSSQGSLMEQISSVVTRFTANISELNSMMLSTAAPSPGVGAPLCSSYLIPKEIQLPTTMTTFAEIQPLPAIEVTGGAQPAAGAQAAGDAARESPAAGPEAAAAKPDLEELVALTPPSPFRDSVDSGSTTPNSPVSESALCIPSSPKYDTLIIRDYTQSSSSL
Experiment: In vitro functional potency using an automated assay employing LtK-cells stably expressing human recombinant mGlu5 receptor by measuring changes in cytosolic [Ca2+] concentration
VALUE_KIND: pIC50
Give bare numbers, as −log10 of the molar value.

Study these solved cases before continuing.
[3H]C([3H])([3H])Oc1cncc(C#Cc2ccccn2)c1 : 9.00
[3H]C([3H])([3H])OCc1cncc(C#Cc2csc(C)n2)c1 : 8.15

// moving on: another record for pIC50
Query string: Quick one: pIC50 for COCc1cncc(C#Cc2ccccn2)c1 ?
Result string: 7.72

* * *

Test: Lipophilicity (Log D) was determined
Assay type: physicochemical
Conditions: octanol/water
What logD was measured for each of the following?
Give bare numbers.

Reference set (3 entries):
[3H]C([3H])([3H])OCc1cncc(C#Cc2csc(C)n2)c1 : 2.4
Cc1cncc(C#Cc2csc(C)n2)c1 : 2.5
[3H]C([3H])([3H])Oc1cncc(C#Cc2ccccn2)c1 : 2.25

Now look at this entry.
Query string: Tell me the measured logD of COCc1cncc(C#Cc2ccccn2)c1 , please.
Result string: 2

* * *

Target: Metabotropic glutamate receptor 5 (Homo sapiens, UniProt P41594)
Test: Binding affinity towards human mGlu5 receptors expressed in LtK-cells
Assay type: cell-based
VALUE_KIND: IC50 (nM)
Answers are plain numbers, in nM.

Query string: # value lookup — system Metabotropic glutamate receptor 5 (Homo sapiens, UniProt P41594), readout IC50, item [3H]C([3H])([3H])OCc1cncc(C#Cc2csc(C)n2)c1
Result string: 47
